What growth was measured for each of the following?
# Test system: SF-268 CNS
# assay.overview: NCI-60 one-dose screen, 48 h (100 = growth as untreated, 0 = no growth, -100 = all killed)
# measurement.setup: 10 µM
Compounds without any hit were thinned out: in the full panel of roughly 83,000, 20% have a hit.
Give bare numbers, in %.

Would you please look over these solved cases?
COc1ccc(C2OC[C@@]3(C)C4CC[C@]5(C)C(CC=C6C7CC(C)(C)CC[C@]7(C(=O)O)CC[C@]65C)[C@@]4(C)C[C@@H](O)[C@@H]3O2)cc1 (some centres undefined) ... 88.8
O=C(Nc1ccc(Oc2ncnc3scc(Nc4n[nH]c(=S)s4)c23)cc1)C1(C(=O)Nc2cccc(C(F)(F)F)c2)CC1 ... 102
Fc1ccc(-c2csc(Nc3cccc(Nc4nc(-c5ccc(F)cc5)cs4)c3)n2)cc1 ... 57.9

Here's the next entry for you.
Measured on SF-268 CNS, COc1ccc(C2c3sc4ccc(C)cc4c3Oc3nc(N)nc(N)c32)cc1 (centres undefined) has a documented growth of 88.6
